Molecular target: Ybr033w (UniProt P38073)
Sequence: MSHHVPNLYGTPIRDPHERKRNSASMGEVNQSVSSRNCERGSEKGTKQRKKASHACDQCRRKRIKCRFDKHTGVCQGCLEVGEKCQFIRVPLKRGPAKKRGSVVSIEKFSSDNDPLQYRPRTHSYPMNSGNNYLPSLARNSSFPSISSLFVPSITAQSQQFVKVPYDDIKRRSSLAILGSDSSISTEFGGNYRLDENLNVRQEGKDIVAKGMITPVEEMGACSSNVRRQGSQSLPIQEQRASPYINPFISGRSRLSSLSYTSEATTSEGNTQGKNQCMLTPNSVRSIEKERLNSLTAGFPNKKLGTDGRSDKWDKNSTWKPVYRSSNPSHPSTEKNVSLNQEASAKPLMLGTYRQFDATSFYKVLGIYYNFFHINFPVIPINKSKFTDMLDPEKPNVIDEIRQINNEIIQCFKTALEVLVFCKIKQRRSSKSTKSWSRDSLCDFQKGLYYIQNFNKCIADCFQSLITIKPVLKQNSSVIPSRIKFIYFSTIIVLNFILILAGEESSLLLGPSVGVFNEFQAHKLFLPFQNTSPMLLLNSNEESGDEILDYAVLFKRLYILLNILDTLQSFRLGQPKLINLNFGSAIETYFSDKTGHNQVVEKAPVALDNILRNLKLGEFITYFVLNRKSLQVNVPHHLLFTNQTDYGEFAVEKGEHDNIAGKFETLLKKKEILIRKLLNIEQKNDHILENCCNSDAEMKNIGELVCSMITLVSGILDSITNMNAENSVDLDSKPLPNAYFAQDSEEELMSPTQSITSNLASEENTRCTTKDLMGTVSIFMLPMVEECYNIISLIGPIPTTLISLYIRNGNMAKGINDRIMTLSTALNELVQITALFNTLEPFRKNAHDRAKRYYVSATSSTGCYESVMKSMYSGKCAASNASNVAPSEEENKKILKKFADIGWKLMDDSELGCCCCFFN
Assay: PBM E-score (8-mer binding enrichment) (E-score (-0.5 to 0.5)); higher = stronger / more preferred TF binding
Details: protein concentration: 200 nM; construct: GST-full length
Over roughly 33,000 sequences, “E-score (-0.5 to 0.5)” has its median near -0.012; the highest 2% begin near 0.29. The entries come from a sample that favours the highest values as a whole.
Returns one of yes or no; yes when PBM E-score is >= -0.06.

As a guide, the following entries are already answered.
GACACACC
no
GAAATAAA
yes
GCATCACA
yes
AATACTCA
yes
CCCTTACC
no
CCCAAGCA
no
GCGCTGAA
no
GGCCTACC
no
GAGAGATC
yes
GAAGGCCC
no

Hi, just wondering whether CAGCTACA shows PBM E-score of -0.06 or higher.
yes

Now try AGTTGCGG .
yes

Now try ATTCCCCA .
no
